pEC50 values for the compounds below.
System: FADD-deficient variant of human Jurkat T cells
procedure.summary: TNF-α induced necroptosis inhibition, ATP-based viability assessment
Format: cell-based
condition.info: Jurkat; 10 ng/mL human TNF-α, 24 hours, CellTiter-Glo viability
pEC50: −log10 of the molar value.
measurement.label: pEC50

C#CC1(O)c2ccccc2CCc2ccccc21 ... 5.49
O=C(C1COc2ccccc2O1)N1CCc2ccccc21 (centres unmarked) ... 6.20
c1ccc(C2CC3CC4(CCCC4)N2O3)cc1 (centres unmarked) ... 6.18
CCN1CCN(CC(=O)N2N=CCC2c2ccccc2)CC1 (centres unmarked) ... 6.39
Cc1ccc(CN(C)C(=O)C2CCCCC2)o1 ... 5.58
O=C(CSc1ccc(Cl)cc1)N1N=CCC1c1ccccc1 (centres unmarked) ... 5.49
C#CC1(O)c2ccccc2C=Cc2ccccc21 ... 5.53
O=C(CSc1nnnn1-c1ccccc1)N1N=CCC1c1ccccc1 (centres unmarked) ... 6.20
O=c1c2c3c(sc2ncn1Cc1c(Cl)cccc1Cl)CCC3 ... 6.03
CCC1(O)c2ccccc2CCc2ccccc21 ... 5.23
O=c1c2c3c(sc2ncn1Cc1ccccc1)CCC3 ... 6.67

* * *

Test system: FADD-deficient variant of human Jurkat T cells
procedure.summary: TNF-α induced necroptosis inhibition, ATP-based viability assessment
Assay type: cell-based
condition.info: Jurkat; 10 ng/mL human TNF-α, 24 hours, CellTiter-Glo viability
EC50 values for the compounds below.
measurement.label: EC50

O=c1cc(Cn2cnc3sc4c(c3c2=O)CCC4)c2ccccc2[nH]1 ... > 30 µM
O=c1c2c3c(sc2ncn1Cc1cccc2cccnc12)CCC3 ... > 30 µM
O=c1c2ccccc2ncn1Cc1ccc(Cl)cc1 ... > 30 µM
